Values were extracted from ChEMBL document CHEMBL3120097.

- PROTOCOL_DETAILS: Cytotoxicity against human Huh7.5 cells
- Format: cell-based, Huh-7
ENDPOINT: CC50

INSERT INTO results (test_smiles, measured_value) VALUES
  ('COc1cccc2c(C(=O)N3CCC[C@H]3C(=O)Nc3ccc(/C=C/c4ccc(NC(=O)[C@@H]5CCCN5C(=O)c5nc(Cl)cc6c(OC)cccc56)cc4)cc3)nc(Cl)cc12', '> 10 µM');

----------
Form field: pEC50 (one value per entry).
- Tested on: Hepatitis C virus
- PROTOCOL_DETAILS: Antiviral activity against HCV genotype 1b infected in human HuH7 cells after 72 hrs by FRET assay
- Format: functional, organism-based, Hepacivirus hominis
- CONDITIONS_USED: Huh-7, 72 h
pEC50: −log10 of the molar value.
ENDPOINT: pEC50

INSERT INTO results (test_smiles, assayed_system, measured_value) VALUES
  ('O=C(Nc1ccc(/C=C/c2ccc(NC(=O)[C@@H]3CCCN3C(=O)c3nccc4c(Cl)cccc34)cc2)cc1)[C@@H]1CCCN1C(=O)c1nccc2c(Cl)cccc12', 'Hepatitis C virus', 6.86),
  ('COc1cccc2c(C(=O)N3CCC[C@H]3C(=O)Nc3ccc(C#Cc4ccc(NC(=O)[C@@H]5CCCN5C(=O)c5nc(Cl)cc6c(OC)cccc56)cc4)cc3)nc(Cl)cc12', 'Hepatitis C virus', 7.64),
  ('CCc1ccnc(C(=O)N2CCC[C@H]2C(=O)Nc2ccc(/C=C/c3ccc(NC(=O)[C@@H]4CCCN4C(=O)c4cc(CC)ccn4)cc3)cc2)c1', 'Hepatitis C virus', 6.41),
  ('O=C(Nc1ccc(/C=C/c2ccc(NC(=O)[C@@H]3CCCN3C(=O)c3nccc4ccc(Cl)cc34)cc2)cc1)[C@@H]1CCCN1C(=O)c1nccc2ccc(Cl)cc12', 'Hepatitis C virus', 7.44),
  ('COc1ccc2ccc(C(=O)N3CCC[C@H]3C(=O)Nc3ccc(/C=C/c4ccc(NC(=O)[C@@H]5CCCN5C(=O)c5ccc6ccc(OC)cc6n5)cc4)cc3)nc2c1', 'Hepatitis C virus', 7.21),
  ('O=C(Nc1ccc(/C=C/c2ccc(NC(=O)[C@@H]3CCCN3C(=O)c3ccccc3)cc2)cc1)[C@@H]1CCCN1C(=O)c1ccccc1', 'Hepatitis C virus', 7.00),
  ('O=C(Nc1ccc(/C=C/c2ccc(NC(=O)[C@@H]3CCCN3C(=O)c3cc4ccccc4cn3)cc2)cc1)[C@@H]1CCCN1C(=O)c1cc2ccccc2cn1', 'Hepatitis C virus', 6.55),
  ('O=C(Nc1ccc(/C=C/c2ccc(NC(=O)[C@@H]3CCCN3C(=O)c3nncc4ccccc34)cc2)cc1)[C@@H]1CCCN1C(=O)c1nncc2ccccc12', 'Hepatitis C virus', 7.52),
  ('CCc1cccnc1C(=O)N1CCC[C@H]1C(=O)Nc1ccc(/C=C/c2ccc(NC(=O)[C@@H]3CCCN3C(=O)c3ncccc3CC)cc2)cc1', 'Hepatitis C virus', 7.34),
  ('Cc1cc2ccccc2c(C(=O)N2CCC[C@H]2C(=O)Nc2ccc(/C=C/c3ccc(NC(=O)[C@@H]4CCCN4C(=O)c4nc(C)cc5ccccc45)cc3)cc2)n1', 'Hepatitis C virus', 8.22),
  ('COc1cccc2c(C(=O)N3CCC[C@H]3C(=O)Nc3ccc(/C=C/c4ccc(NC(=O)[C@@H]5CCCN5C(=O)c5nccc6c(OC)cccc56)cc4)cc3)nccc12', 'Hepatitis C virus', 6.67),
  ('O=C(Nc1ccc(/C=C/c2ccc(NC(=O)[C@@H]3CCCN3C(=O)c3ncccc3-c3ccccc3)cc2)cc1)[C@@H]1CCCN1C(=O)c1ncccc1-c1ccccc1', 'Hepatitis C virus', 6.09);

----------
Form field: CC50 at 72 h (one value per entry).
- PROTOCOL_DETAILS: Cytotoxicity against bovine MDBK cells after 3 days by CellTitre-Blue assay
- Type: cell-based, Bos taurus
- CONDITIONS_USED: cattle
ENDPOINT: CC50 at 72 h

INSERT INTO measurements (test_smiles, endpoint, measured_value) VALUES
  ('COc1ccc2ccc(C(=O)N3CCC[C@H]3C(=O)Nc3ccc(/C=C/c4ccc(NC(=O)[C@@H]5CCCN5C(=O)c5ccc6ccc(OC)cc6n5)cc4)cc3)nc2c1', 'CC50 at 72 h', '> 10 µM'),
  ('O=C(Nc1ccc(/C=C/c2ccc(NC(=O)[C@@H]3CCCN3C(=O)Cc3ccccc3)cc2)cc1)[C@@H]1CCCN1C(=O)Cc1ccccc1', 'CC50 at 72 h', '> 30 µM'),
  ('O=C(Nc1ccc(/C=C/c2ccc(NC(=O)[C@@H]3CCCN3C(=O)c3nccc4cc(Cl)ccc34)cc2)cc1)[C@@H]1CCCN1C(=O)c1nccc2cc(Cl)ccc12', 'CC50 at 72 h', '> 10 µM'),
  ('O=C(Nc1ccc(/C=C/c2ccc(NC(=O)[C@@H]3CCCN3C(=O)c3ncnc4ccccc34)cc2)cc1)[C@@H]1CCCN1C(=O)c1ncnc2ccccc12', 'CC50 at 72 h', '> 10 µM'),
  ('O=C(Nc1ccc(/C=C/c2ccc(NC(=O)[C@@H]3CCCN3C(=O)c3ncccc3-c3ccccc3)cc2)cc1)[C@@H]1CCCN1C(=O)c1ncccc1-c1ccccc1', 'CC50 at 72 h', '> 10 µM'),
  ('O=C(Nc1ccc(/C=C/c2ccc(NC(=O)[C@@H]3CCCN3C(=O)c3nc(Cl)cc4ccccc34)cc2)cc1)[C@@H]1CCCN1C(=O)c1nc(Cl)cc2ccccc12', 'CC50 at 72 h', '> 10 µM'),
  ('O=C(Nc1ccc(/C=C/c2ccc(NC(=O)[C@@H]3CCCN3C(=O)c3cncc4ccccc34)cc2)cc1)[C@@H]1CCCN1C(=O)c1cncc2ccccc12', 'CC50 at 72 h', '> 10 µM');

----------
- Test system: Hepatitis C virus
- PROTOCOL_DETAILS: Antiviral activity against HCV genotype 1a H77c infected in human HuH7 cells after 3 days by luciferase reporter gene assay
- Format: functional, organism-based, Hepacivirus hominis
- CONDITIONS_USED: Huh-7, 72 h
pEC50: −log10 of the molar value.
ENDPOINT: pEC50

INSERT INTO measurements (test_smiles, assayed_system, endpoint, sign, measured_value) VALUES
  ('COc1cccc2c(C(=O)N3CCC[C@H]3C(=O)Nc3ccc(-c4cc(-c5ccc(NC(=O)[C@@H]6CCCN6C(=O)c6nc(Cl)cc7c(OC)cccc67)cc5)[nH]n4)cc3)nc(Cl)cc12', 'Hepatitis C virus', 'pEC50', '=', 6.92),
  ('O=C(Nc1ccc(C#Cc2ccc(NC(=O)[C@@H]3CCCN3C(=O)Cc3ccccc3)cc2)cc1)[C@@H]1CCCN1C(=O)Cc1ccccc1', 'Hepatitis C virus', 'pEC50', '<', 5.00),
  ('O=C(Nc1ccc(-c2cc(-c3ccc(NC(=O)[C@@H]4CCCN4C(=O)Cc4ccccc4)cc3)[nH]n2)cc1)[C@@H]1CCCN1C(=O)Cc1ccccc1', 'Hepatitis C virus', 'pEC50', '=', 5.86),
  ('O=C(Nc1ccc(-c2cnc(-c3ccc(NC(=O)[C@@H]4CCCN4C(=O)Cc4ccccc4)cc3)o2)cc1)[C@@H]1CCCN1C(=O)Cc1ccccc1', 'Hepatitis C virus', 'pEC50', '=', 5.82);

----------
- Tested on: Hepatitis C virus
- PROTOCOL_DETAILS: Antiviral activity against HCV genotype 1b infected in human HuH7 cells after 72 hrs by FRET assay
- Assay type: functional, organism-based, Hepacivirus hominis
- CONDITIONS_USED: Huh-7, 72 h
ENDPOINT: log10(EC50) (log10 of the value in nM)

INSERT INTO assay_data (test_smiles, measured_value) VALUES
  ('O=C(Nc1ccc(/C=C/c2ccc(NC(=O)[C@@H]3CCCN3C(=O)c3nc(Cl)cc4c(F)cccc34)cc2)cc1)[C@@H]1CCCN1C(=O)c1nc(Cl)cc2c(F)cccc12', 1.26),
  ('COc1cccc2c(C(=O)N3CCC[C@H]3C(=O)Nc3ccc(/C=C/c4ccc(NC(=O)[C@@H]5CCCN5C(=O)c5nc(Cl)cc6c(OC)cccc56)cc4)cc3)nc(Cl)cc12', 0.85),
  ('O=C(Nc1ccc(/C=C/c2ccc(NC(=O)[C@@H]3CCCN3C(=O)c3ncnc4ccccc34)cc2)cc1)[C@@H]1CCCN1C(=O)c1ncnc2ccccc12', 3.36),
  ('C=Cc1ccccc1C(=O)N1CCC[C@H]1C(=O)Nc1ccc(/C=C/c2ccc(NC(=O)[C@@H]3CCCN3C(=O)c3ccccc3C=C)cc2)cc1', 3.08),
  ('O=C(Nc1ccc(/C=C/c2ccc(NC(=O)[C@@H]3CCCN3C(=O)c3nc(F)cc4ccccc34)cc2)cc1)[C@@H]1CCCN1C(=O)c1nc(F)cc2ccccc12', 1.43),
  ('O=C(Nc1ccc(/C=C/c2ccc(NC(=O)[C@@H]3CCCN3C(=O)c3nccc4c(F)cccc34)cc2)cc1)[C@@H]1CCCN1C(=O)c1nccc2c(F)cccc12', 1.62),
  ('O=C(Nc1ccc(/C=C/c2ccc(NC(=O)[C@@H]3CCCN3C(=O)c3cc(Cl)cc4ccccc34)cc2)cc1)[C@@H]1CCCN1C(=O)c1cc(Cl)cc2ccccc12', 2.38),
  ('COc1cccc2nc(C(=O)N3CCC[C@H]3C(=O)Nc3ccc(/C=C/c4ccc(NC(=O)[C@@H]5CCCN5C(=O)c5ccc6c(OC)cccc6n5)cc4)cc3)ccc12', 2.99),
  ('COc1cc2ccccc2c(C(=O)N2CCC[C@H]2C(=O)Nc2ccc(/C=C/c3ccc(NC(=O)[C@@H]4CCCN4C(=O)c4nc(OC)cc5ccccc45)cc3)cc2)n1', 1.51),
  ('C=Cc1cccnc1C(=O)N1CCC[C@H]1C(=O)Nc1ccc(/C=C/c2ccc(NC(=O)[C@@H]3CCCN3C(=O)c3ncccc3C=C)cc2)cc1', 2.51),
  ('O=C(Nc1ccc(/C=C/c2ccc(NC(=O)[C@@H]3CCCN3C(=O)c3cncc4ccccc34)cc2)cc1)[C@@H]1CCCN1C(=O)c1cncc2ccccc12', 2.15),
  ('O=C(Nc1ccc(/C=C/c2ccc(NC(=O)[C@@H]3CCCN3C(=O)c3ccc4ccccc4n3)cc2)cc1)[C@@H]1CCCN1C(=O)c1ccc2ccccc2n1', 2.30),
  ('O=C(Nc1ccc(/C=C/c2ccc(NC(=O)[C@@H]3CCCN3C(=O)c3nccc4cc(Cl)ccc34)cc2)cc1)[C@@H]1CCCN1C(=O)c1nccc2cc(Cl)ccc12', 2.04),
  ('O=C(Nc1ccc(/C=C/c2ccc(NC(=O)[C@@H]3CCCN3C(=O)c3nc(Cl)cc4ccccc34)cc2)cc1)[C@@H]1CCCN1C(=O)c1nc(Cl)cc2ccccc12', 1.36),
  ('O=C(Nc1ccc(/C=C/c2ccc(NC(=O)[C@@H]3CCCN3C(=O)c3ncc(Cl)c4ccccc34)cc2)cc1)[C@@H]1CCCN1C(=O)c1ncc(Cl)c2ccccc12', 1.84),
  ('O=C(Nc1ccc(/C=C/c2ccc(NC(=O)[C@@H]3CCCN3C(=O)c3cccc4ccccc34)cc2)cc1)[C@@H]1CCCN1C(=O)c1cccc2ccccc12', 3.20),
  ('COc1cccc2c(C(=O)N3CCC[C@H]3C(=O)Nc3ccc(-c4cc(-c5ccc(NC(=O)[C@@H]6CCCN6C(=O)c6nc(Cl)cc7c(OC)cccc67)cc5)[nH]n4)cc3)nc(Cl)cc12', 1.04),
  ('COc1cccc2c(C(=O)N3CCC[C@H]3C(=O)Nc3ccc(-c4cnc(-c5ccc(NC(=O)[C@@H]6CCCN6C(=O)c6nc(Cl)cc7c(OC)cccc67)cc5)o4)cc3)nc(Cl)cc12', 1.53),
  ('O=C(Nc1ccc(-c2cc(-c3ccc(NC(=O)[C@@H]4CCCN4C(=O)Cc4ccccc4)cc3)[nH]n2)cc1)[C@@H]1CCCN1C(=O)Cc1ccccc1', 0.68);
